Target: full length (FL) LXRα (Homo sapiens)
Construct: the full length (FL) proteins of LXRα (amino acids 1-447); NP005684; expressed in transfected cells; host or cells: HEK293
Sequence (Q13133 1-447): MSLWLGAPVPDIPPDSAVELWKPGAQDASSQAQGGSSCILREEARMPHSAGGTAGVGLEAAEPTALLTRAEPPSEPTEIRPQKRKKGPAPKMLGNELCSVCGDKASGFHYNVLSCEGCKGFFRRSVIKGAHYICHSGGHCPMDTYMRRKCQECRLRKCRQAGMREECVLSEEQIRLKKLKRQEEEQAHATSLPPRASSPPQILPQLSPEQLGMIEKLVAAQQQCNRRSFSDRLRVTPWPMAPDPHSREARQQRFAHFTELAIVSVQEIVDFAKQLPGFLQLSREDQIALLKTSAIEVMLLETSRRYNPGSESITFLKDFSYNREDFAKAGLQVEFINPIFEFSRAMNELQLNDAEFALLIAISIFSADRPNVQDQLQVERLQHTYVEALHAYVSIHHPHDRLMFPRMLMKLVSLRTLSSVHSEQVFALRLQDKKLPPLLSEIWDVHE
Assay: LXR Gal4 reporter transient transfection assay (FL-M2H Gal4α)
Type: cell-based
Settings: HEK293 cells, full length LXRα; read-out: FL-M2H Gal4α (EC50 range)
Measured EC50, listed per entry.

{"SMILES STRUCTURE": "Cc1ccc(S(=O)(=O)n2c(-c3cccc(N4CC(C(=O)O)C4)c3)c(-c3ccsc3C(F)F)c3cc(F)ccc32)cc1", "EC50": "100 to 1000 nM"}

The compound listed as N#Cc1ccccc1-c1c(-c2cccc(-c3ccc(C(=O)O)c4c3OCO4)c2)n(S(=O)(=O)c2ccc(C(F)F)cc2)c2ccc(F)cc12 has a reported EC50 of < 100 nM

###

Test: Short term HFD mouse model: plasma and liver exposure
Assay type: in vivo, mice (C57BL/6J)
Settings: HFD mice, three oral doses of 20 mg/kg, 4 h after last dose
Method: Short Term HFD Mouse Model: The in vivo transcriptional regulation of several LXR target genes by LXR modulators was assessed in mice. For this, C57BL/6J were purchased from Elevage Janvier (Rennes, France) at the age of 8 weeks. After an acclimation period of two weeks, animals were preferred on a high fat diet (HFD) (Ssniff Spezialdiäten GmbH, Germany, Surwit EF D12330 mod, Cat. No. E15771-34), with 60 kcal % from fat plus 1% (w/w) extra cholesterol (Sigma-Aldrich, St. Louis, Mo.) for 5 days. […]

{"SMILES STRUCTURE": "O=C(O)c1ccc(-c2cccc(-c3c(-c4c(Cl)cccc4Cl)c4cc(F)ccc4n3S(=O)(=O)c3ccc(C(F)F)cc3)c2)c(Cl)c1", "liver exposure 4 h": "C (1 μM to ≤10 μM)"}
{"SMILES STRUCTURE": "COc1c(C(=O)O)ccc(-c2cccc(-c3c(-c4ccccc4C#N)c4cc(F)ccc4n3S(=O)(=O)c3ccc(C(F)F)cc3)c2)c1Cl", "liver exposure 4 h": "C (1 μM to ≤10 μM)"}

###

assay: Short term HFD mouse model: plasma and liver exposure; assay type: in vivo, mice (C57BL/6J); conditions: HFD mice, three oral doses of 20 mg/kg, 4 h after last dose
MEASURED PROPERTY: plasma exposure 4 h

{"SMILES STRUCTURE": "O=C(O)c1ccc(-c2cccc(-c3c(-c4ccccc4C4COC4)c4cc(F)ccc4n3S(=O)(=O)c3ccc(C(F)F)cc3)c2)c(Cl)c1", "plasma exposure 4 h": "C (C: 100 nM to <300 nM)"}
{"SMILES STRUCTURE": "N#Cc1nccnc1-c1c(-c2cccc(-c3cc(F)c(C(=O)O)cc3Cl)c2)n(S(=O)(=O)c2ccc(C(F)F)cc2)c2ccc(F)cc12", "plasma exposure 4 h": "D (D: <100 nM)"}
{"SMILES STRUCTURE": "N#Cc1sccc1-c1c(-c2cccc(-c3ccc(C(=O)O)cc3Cl)c2)n(S(=O)(=O)c2ccc(C(F)F)cc2)c2ccc(F)cc12", "plasma exposure 4 h": "C (C: 100 nM to <300 nM)"}
{"SMILES STRUCTURE": "N#Cc1cccc(C#N)c1-c1c(-c2cccc(-c3ccc(C(=O)O)cc3Cl)c2)n(S(=O)(=O)c2ccc(C(F)F)cc2)c2ccc(F)cc12", "plasma exposure 4 h": "D (D: <100 nM)"}
{"SMILES STRUCTURE": "Cc1ccc(S(=O)(=O)n2c(-c3cccc(-c4ccc(C(=O)O)cc4Cl)c3)c(-c3ccsc3C#N)c3cc(F)ccc32)cc1", "plasma exposure 4 h": "D (D: <100 nM)"}
{"SMILES STRUCTURE": "Cc1ccc(S(=O)(=O)n2c(-c3cccc(C45CCC(C(=O)O)(CC4)CC5)c3)c(-c3ccsc3C#N)c3cc(F)ccc32)cc1", "plasma exposure 4 h": "C (C: 100 nM to <300 nM)"}

Continue with the compound presented below.
The compound listed as N#Cc1sccc1-c1c(-c2cccc(-c3ccc(C(=O)O)cc3Cl)c2)n(S(=O)(=O)c2ccc(C(F)(F)F)nc2)c2ccc(F)cc12 has a reported plasma exposure 4 h of C (C: 100 nM to <300 nM)

###

molecular target: LXRβ ligand-binding domain (Homo sapiens, UniProt P55055, DUP175-175); construct: amino acids 156-461; NP009052; made in house; host or cells: E. coli; assay: TR-FRETβ activity assay (NCoA3 coactivator peptide recruitment); format: biochemical; details: TR-FRET, 1 μM 24(S)-25-epoxycholesterol prestimulation; read-out: FRETβ (EC50 range)
Sequence (P55055 with tags, fused parts or gaps DUP175-175 limits assumed): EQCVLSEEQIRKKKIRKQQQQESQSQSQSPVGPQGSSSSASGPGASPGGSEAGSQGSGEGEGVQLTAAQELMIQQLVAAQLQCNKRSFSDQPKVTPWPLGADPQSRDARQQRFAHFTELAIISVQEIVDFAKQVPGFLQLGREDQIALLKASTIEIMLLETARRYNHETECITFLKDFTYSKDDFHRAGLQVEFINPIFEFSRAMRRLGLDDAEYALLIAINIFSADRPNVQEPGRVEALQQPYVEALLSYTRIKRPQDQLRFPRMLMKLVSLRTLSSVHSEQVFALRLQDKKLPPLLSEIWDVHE
pEC50: −log10 of the molar value.
MEASURED PROPERTY: pEC50

Field: example entries. Status: answers known.
{"COMPOUND": "N#Cc1sccc1-c1c(-c2cccc(N3CC(C(=O)O)C3)c2)n(S(=O)(=O)c2ccc3c(c2)CCC3)c2ccc(F)cc12", "MEASURED PROPERTY": "pEC50", "RESULT": "6.00 to 7.00"}
{"COMPOUND": "N#Cc1cccc(C#N)c1-c1c(-c2cccc(C3CC3C(=O)O)c2)n(S(=O)(=O)c2ccc(C(F)F)cc2)c2ccc(F)cc12 (stereo not shown)", "MEASURED PROPERTY": "pEC50", "RESULT": "6.00 to 7.00"}

Entry Cc1cccc(S(=O)(=O)n2c(-c3cccc(N4CC(C(=O)O)C4)c3)c(-c3ccsc3C#N)c3cc(F)ccc32)c1 , LXRβ ligand-binding domain (Homo sapiens, UniProt P55055, DUP175-175) data, pEC50 value: 5.00 to 6.00

Entry N#Cc1cc(F)ccc1-c1c(-c2cccs2)n(S(=O)(=O)c2ccc(Cl)cc2)c2ccccc12 , LXRβ ligand-binding domain (Homo sapiens, UniProt P55055, DUP175-175) data, pEC50 value: 6.00 to 7.00

###

molecular target: LXRβ ligand-binding domain (Homo sapiens, UniProt P55055, DUP175-175); construct: amino acids 156-461; NP009052; made in house; host or cells: E. coli; test: TR-FRETβ activity assay (NCoA3 coactivator peptide recruitment); type: biochemical; settings: TR-FRET, 1 μM 24(S)-25-epoxycholesterol prestimulation; read-out: FRETβ (EC50 range)
pEC50: −log10 of the molar value.
MEASURED PROPERTY: pEC50

Field: example entries. Status: answers known.
{"COMPOUND": "N#Cc1sccc1-c1c(-c2cccs2)n(S(=O)(=O)c2ccc(Cl)cc2)c2cc(OCCCCC(=O)O)ccc12 [15/5]", "pEC50": "5.00 to 6.00"}
{"COMPOUND": "N#Cc1sccc1-c1c(-c2cccc(N3CC(C(=O)O)C3)c2)n(S(=O)(=O)c2ccc(OC(F)F)cc2)c2ccc(F)cc12 [3/11]", "pEC50": "5.00 to 6.00"}
{"COMPOUND": "Cc1ccc(S(=O)(=O)n2c(-c3cccc(-c4ccc(C(=O)O)cc4)c3)c(-c3ccsc3C#N)c3cc(F)cc(O)c32)cc1 [3/54]", "pEC50": "6.00 to 7.00"}

The compound listed as O=C(O)C1CC1c1cccc(-c2c(-c3c(Cl)cccc3Cl)c3cc(F)ccc3n2S(=O)(=O)c2ccc(C(F)F)cc2)c1 (stereo not shown) [11/69] has a reported pEC50 of > 7.00

The compound listed as N#Cc1cccc(C#N)c1-c1c(-c2cccc(-c3ccc(C(=O)O)cc3F)c2)n(S(=O)(=O)C2CCC(C(F)(F)F)CC2)c2ccc(F)cc12 (stereo not shown) [11/64] has a reported pEC50 of 6.00 to 7.00

The compound listed as Cc1ccc(S(=O)(=O)n2c(-c3cccc(-c4ccc(C(=O)O)c(C)c4Cl)c3)c(-c3ccsc3C#N)c3cc(F)ccc32)cc1 [12/1] has a reported pEC50 of 6.00 to 7.00

The compound listed as N#Cc1sccc1-c1c(-c2cccc(N3CC(C(=O)O)C3)c2)n(S(=O)(=O)c2ccc(Cl)cc2)c2ccc(F)cc12 [5/7] has a reported pEC50 of 6.00 to 7.00

Source of measurements: patent US11618747B2
